Listed binders paired with reported Kd
Molecular target: T1, soluble human CD3 epsilon chain (human, UniProt P07766 23-126)
T1 construct: also called CD3ε
T1 sequence (P07766 23-126 limits assumed): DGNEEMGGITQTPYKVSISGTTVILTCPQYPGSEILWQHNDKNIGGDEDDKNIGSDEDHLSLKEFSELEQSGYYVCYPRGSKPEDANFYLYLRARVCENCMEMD
Experiment: SPR
Please state the figure in nM; there is no need to write the unit.

Worked cases, Kd given:
[
  {
    "binder": "TR01H040-E22Hh/none-Hi-Kn010G3/L0206-k0 (antibody, V domains shown, one-arm) VH: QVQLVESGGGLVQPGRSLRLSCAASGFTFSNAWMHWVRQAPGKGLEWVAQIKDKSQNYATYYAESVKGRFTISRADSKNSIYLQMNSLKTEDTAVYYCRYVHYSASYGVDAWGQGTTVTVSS VL: DIVMTQSPLSLPVTPGEPASISCRSSQSPVHSNRNTYLHWYQQKPGQAPRLLIYKVSNRFSGVPDRFSGSGSGTDFTLKISRVEAEDVGVYYCYQGTQVPYTFGQGTKLEIKR",
    "measure-name": "Kd",
    "reported-measurement": 2.9
  },
  {
    "binder": "CE115HA192-E22Hh//-Hi-Kn010G3/L0000-k0 (antibody, V domains shown, one-arm) VH: QVQLVESGGGVVQPGRSLRLSCAASGFTFSNAWMHWVRQAPGKGLEWVAQIKAKSNNYATYYAESVKGRFTISRDDSKNSLYLQMNSLKTEDTAVYYCRYVHYYAYYGVDAWGQGTTVTVSS VL: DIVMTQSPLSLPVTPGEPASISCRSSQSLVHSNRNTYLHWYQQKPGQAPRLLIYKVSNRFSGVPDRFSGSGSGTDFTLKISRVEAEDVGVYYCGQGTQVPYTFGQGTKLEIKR",
    "measure-name": "Kd",
    "reported-measurement": 50.5
  },
  {
    "binder": "TR01H040-E22Hh/none-Hi-Kn010G3/TR01L019-k0 (antibody, V domains shown, one-arm) VH: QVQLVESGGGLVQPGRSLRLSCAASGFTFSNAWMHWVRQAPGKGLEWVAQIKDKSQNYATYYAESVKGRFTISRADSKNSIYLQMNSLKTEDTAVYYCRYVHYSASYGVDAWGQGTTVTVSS VL: DIVMTQSPLSLPVTPGEPASISCQASESPVHSNRNTYLHWYLQKPGQSPQLLIYKVSNRFSGVPDRFSGSGSGTDFTLKISRVEAEDVGVYYCYQGTQVPYTFGQGTKLEIK",
    "measure-name": "Kd",
    "reported-measurement": 3.2
  }
]

Q: Using the record for TR01H007-E22Hh/none-Hi-Kn010G3/L0000-k0 (antibody, V domains shown, one-arm) VH: QVQLVESGGGLVQPGRSLRLSCAASGFTFSNAWMHWVRQAPGKGLEWVAQIKSKSNNYATYYAESVKGRFTISRADSKNSIYLQMNSLKTEDTAVYYCRYVHYGAYYGVDIWGQGTTVTVSS VL: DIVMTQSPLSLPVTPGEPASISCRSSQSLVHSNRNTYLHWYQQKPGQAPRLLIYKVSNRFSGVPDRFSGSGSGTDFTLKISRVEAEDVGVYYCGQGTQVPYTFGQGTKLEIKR , report its Kd.
Ans: 21.7

Q: Using the record for TR01H066-E22Hh/none-Hi-Kn010G3/L0000-k0 (antibody, V domains shown, one-arm) VH: QVQLVESGGGLVQPGRSLRLSCAASGFTFSNAWMHWVRQAPGKGLEWVAQIKDKSQNYATYYAESVKGRFTISRADSKNSLYLQMNSLKTEDTAVYYCRYVHYAASYGVDAWGQGTTVTVSS VL: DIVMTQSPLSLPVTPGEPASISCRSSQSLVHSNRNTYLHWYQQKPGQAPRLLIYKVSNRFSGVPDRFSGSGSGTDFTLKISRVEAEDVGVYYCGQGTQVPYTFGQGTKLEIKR , report its Kd.
Ans: 60.2

Q: Using the record for TR01H112-E2702GsKsc/none-Hi-E2704sE/L0011-k0 (antibody, V domains shown, one-arm) VH: QVQLVESGGGVVQPGGSLRLSCAASGFTFSNAWMHWVRQAPGKGLEWVAQIKDKSQNYAQYYAESVKGRFTISRADSKNSIYLQMNSLKTEDTAVYYCRYVHYAAGYGVDIWGQGTTVTVSS VL: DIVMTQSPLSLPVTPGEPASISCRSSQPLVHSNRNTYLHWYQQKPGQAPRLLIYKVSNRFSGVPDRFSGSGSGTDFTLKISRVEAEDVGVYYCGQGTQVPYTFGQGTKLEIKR , report its Kd.
Ans: 5.12

Values compiled from patent US20250066503A1.
